Below, each entry is listed with its recorded MIC.
Tested on: Streptococcus faecium MD 8b
Assay: In vitro anti-bacterial activity test (MIC, two-fold agar dilution)
Type: cell-based
Conditions: Enterococcus faecium, MD8B; Streptococcus faecium MD 8b; Mueller-Hinton agar, 10⁷ CFU/mℓ, 37°C, 18 hours; read-out: MIC

- COMPOUND: "CNC1CCC2=C1CN(c1nc3c(cc1F)c(=O)c(C(=O)O)cn3C1CC1)C2 (stereo not drawn)"
  MIC: "0.195 µg/mL"
- COMPOUND: "CC1COc2c(N3CCN(C)CC3)c(F)cc3c(=O)c(C(=O)O)cn1c23 (stereo not drawn) [Ofloxacin, reference compound]"
  MIC: "0.781 µg/mL"
- COMPOUND: "CNC1CCC2=C1CN(c1c(F)cc3c(=O)c(C(=O)O)cn4c3c1OC[C@@H]4C)C2 (stereo partly drawn)"
  MIC: "0.391 µg/mL"
- COMPOUND: "NC1CCC2=C1CN(c1c(F)cc3c(=O)c(C(=O)O)cn(C4CC4)c3c1Cl)C2 (stereo not drawn)"
  MIC: "0.098 µg/mL"
- COMPOUND: "CNC1CCC2=C1CN(c1c(F)cc3c(=O)c(C(=O)O)cn(C4CC4)c3c1Cl)C2 (stereo not drawn)"
  MIC: "0.049 µg/mL"

Item under review: CNC1CCC2=C1CN(c1c(F)c(N)c3c(=O)c(C(=O)O)cn(C4CC4)c3c1F)C2 (stereo not drawn) . Reported MIC?
0.195 µg/mL

Fill in: MIC of CNC1CCC2=C1CN(c1c(F)cc3c(=O)c(C(=O)O)cn(C4CC4)c3c1F)C2 (stereo not drawn) is ___
0.098 µg/mL

Which MIC reading was recorded for the compound NC1CCC2=C1CN(c1c(F)cc3c(=O)c(C(=O)O)cn(C4CC4)c3c1F)C2 (stereo not drawn) ?
0.098 µg/mL

// returns reported MIC for input NC1CCCC2=C1CN(c1c(F)cc3c(=O)c(C(=O)O)cn(C4CC4)c3c1F)C2 (stereo not drawn)
0.098 µg/mL

* * *

Test system: Escherichia coli OTEM
Test: In vitro anti-bacterial activity test (MIC, two-fold agar dilution)
Assay type: cell-based
Settings: Mueller-Hinton agar, 10⁷ CFU/mℓ, 37°C, 18 hours, read-out: MIC
MEASURED METRIC: MIC (µg/mL)
// return numeric value only (unit: µg/mL, not printed)

Consider the reported MIC for these compounds:
- COMPOUND: "CNC1CCC2=C1CN(c1c(F)cc3c(=O)c(C(=O)O)cn(C4CC4)c3c1Cl)C2 (stereo not drawn)"
  UNITS LABEL: "µg/mL"
  MIC: 0.098
- COMPOUND: "CC1COc2c(N3CCN(C)CC3)c(F)cc3c(=O)c(C(=O)O)cn1c23 (stereo not drawn) [Ofloxacin, reference compound]"
  UNITS LABEL: "µg/mL"
  MIC: 0.049
- COMPOUND: "CNC1CCC2=C1CN(c1c(F)c(N)c3c(=O)c(C(=O)O)cn(C4CC4)c3c1F)C2 (stereo not drawn)"
  UNITS LABEL: "µg/mL"
  MIC: 0.049
- COMPOUND: "NC1CCC2=C1CN(c1c(F)cc3c(=O)c(C(=O)O)cn(C4CC4)c3c1F)C2 (stereo not drawn)"
  UNITS LABEL: "µg/mL"
  MIC: 0.049
- COMPOUND: "CNC1CCC2=C1CN(c1c(F)cc3c(=O)c(C(=O)O)cn4c3c1OC[C@@H]4C)C2 (stereo partly drawn)"
  UNITS LABEL: "µg/mL"
  MIC: 0.391

Consider the compound shown here: CNC1CCC2=C1CN(c1nc3c(cc1F)c(=O)c(C(=O)O)cn3C1CC1)C2 (stereo not drawn) What is its recorded MIC?
0.098

Which MIC reading was recorded for the compound NC1CCC2=C1CN(c1c(F)cc3c(=O)c(C(=O)O)cn(C4CC4)c3c1Cl)C2 (stereo not drawn) ?
0.098

Quick one: MIC for NC1CCCC2=C1CN(c1c(F)cc3c(=O)c(C(=O)O)cn(C4CC4)c3c1F)C2 (stereo not drawn) ?
0.098

Entry CNC1CCC2=C1CN(c1c(F)cc3c(=O)c(C(=O)O)cn(C4CC4)c3c1F)C2 (stereo not drawn) has what MIC?
0.098

* * *

Experiment: in vivo
Conditions: female, ICR, mouse, po
MEASURED METRIC: LD50 at 14 day (mg/kg)
State just the number; it will be interpreted in mg/kg.

Worked examples follow.
- COMPOUND: "NC1CCC2=C1CN(c1c(F)cc3c(=O)c(C(=O)O)cn(C4CC4)c3c1F)C2 (stereo not shown)"
  UNITS LABEL: "mg/kg"
  MEASURED NUMBER: 4000
- COMPOUND: "NC1CCC2=C1CN(c1c(F)cc3c(=O)c(C(=O)O)cn(C4CC4)c3c1Cl)C2 (stereo not shown)"
  UNITS LABEL: "mg/kg"
  MEASURED NUMBER: 4100
- COMPOUND: "CNC1CCC2=C1CN(c1c(F)cc3c(=O)c(C(=O)O)cn(C4CC4)c3c1F)C2 (stereo not shown)"
  UNITS LABEL: "mg/kg"
  MEASURED NUMBER: 4100

Turning now to a further record.
Given the compound COc1c(N2CC3=C(C2)C(N)CC3)c(F)cc2c(=O)c(C(=O)O)cn(C3CC3)c12 (stereo not shown) , what is its reported LD50 at 14 day?
4300

* * *

System: Staphylococcus aureus 503
Assay: In vitro anti-bacterial activity test (MIC, two-fold agar dilution)
Type: cell-based
Conditions: Staphylococcus aureus 503; Mueller-Hinton agar, 10⁷ CFU/mℓ, 37°C, 18 hours; read-out: MIC
MEASURED METRIC: MIC (µg/mL)
Express it in µg/mL; write the number only.

Below are worked cases with known answers.
- COMPOUND: "CNC1CCC2=C1CN(c1c(F)cc3c(=O)c(C(=O)O)cn(C4CC4)c3c1F)C2 (stereo not drawn)"
  TESTED SYSTEM: "Staphylococcus aureus 503"
  UNITS LABEL: "µg/mL"
  MIC: 0.049
- COMPOUND: "NC1CCCC2=C1CN(c1c(F)cc3c(=O)c(C(=O)O)cn(C4CC4)c3c1F)C2 (stereo not drawn)"
  TESTED SYSTEM: "Staphylococcus aureus 503"
  UNITS LABEL: "µg/mL"
  MIC: 0.098
- COMPOUND: "CNC1CCC2=C1CN(c1c(F)cc3c(=O)c(C(=O)O)cn4c3c1OC[C@@H]4C)C2 (stereo partly drawn)"
  TESTED SYSTEM: "Staphylococcus aureus 503"
  UNITS LABEL: "µg/mL"
  MIC: 0.781
- COMPOUND: "CNC1CCC2=C1CN(c1c(F)c(N)c3c(=O)c(C(=O)O)cn(C4CC4)c3c1F)C2 (stereo not drawn)"
  TESTED SYSTEM: "Staphylococcus aureus 503"
  UNITS LABEL: "µg/mL"
  MIC: 0.049
- COMPOUND: "NC1CCC2=C1CN(c1c(F)cc3c(=O)c(C(=O)O)cn(C4CC4)c3c1F)C2 (stereo not drawn)"
  TESTED SYSTEM: "Staphylococcus aureus 503"
  UNITS LABEL: "µg/mL"
  MIC: 0.049
- COMPOUND: "NC1CCC2=C1CN(c1c(F)cc3c(=O)c(C(=O)O)cn(C4CC4)c3c1Cl)C2 (stereo not drawn)"
  TESTED SYSTEM: "Staphylococcus aureus 503"
  UNITS LABEL: "µg/mL"
  MIC: 0.049
- COMPOUND: "CC1COc2c(N3CCN(C)CC3)c(F)cc3c(=O)c(C(=O)O)cn1c23 (stereo not drawn) [Ofloxacin, reference compound]"
  TESTED SYSTEM: "Staphylococcus aureus 503"
  UNITS LABEL: "µg/mL"
  MIC: 0.391
- COMPOUND: "CNC1CCC2=C1CN(c1nc3c(cc1F)c(=O)c(C(=O)O)cn3C1CC1)C2 (stereo not drawn)"
  TESTED SYSTEM: "Staphylococcus aureus 503"
  UNITS LABEL: "µg/mL"
  MIC: 0.098

Next compound, please.
Sample CNC1CCC2=C1CN(c1c(F)cc3c(=O)c(C(=O)O)cn(C4CC4)c3c1Cl)C2 (stereo not drawn) — what was its MIC?
0.025

* * *

Tested on: Escherichia coli DC 0
Experiment: In vitro anti-bacterial activity test (MIC, two-fold agar dilution)
Assay type: cell-based
Conditions: DC0, Mueller-Hinton agar, 10⁷ CFU/mℓ, 37°C, 18 hours, read-out: MIC
MEASURED METRIC: MIC (µg/mL)
All answers are understood in µg/mL, so give the number only.

Consider the worked cases shown below.
- COMPOUND: "CNC1CCC2=C1CN(c1nc3c(cc1F)c(=O)c(C(=O)O)cn3C1CC1)C2 (stereo not shown) [Example 15]"
  TESTED SYSTEM: "Escherichia coli DC 0"
  UNITS LABEL: "µg/mL"
  MIC: 1.56
- COMPOUND: "NC1CCC2=C1CN(c1c(F)cc3c(=O)c(C(=O)O)cn(C4CC4)c3c1Cl)C2 (stereo not shown) [Example 3]"
  TESTED SYSTEM: "Escherichia coli DC 0"
  UNITS LABEL: "µg/mL"
  MIC: 0.781

Quick check: MIC of CC1COc2c(N3CCN(C)CC3)c(F)cc3c(=O)c(C(=O)O)cn1c23 (stereo not shown) [Ofloxacin, reference compound] ?
0.781

Which MIC value belongs to CNC1CCC2=C1CN(c1c(F)cc3c(=O)c(C(=O)O)cn(C4CC4)c3c1Cl)C2 (stereo not shown) [Example 4] ?
0.781

Param item = CNC1CCC2=C1CN(c1c(F)cc3c(=O)c(C(=O)O)cn(C4CC4)c3c1F)C2 (stereo not shown) [Example 2] ; retrieve measured MIC.
0.781

Fill blank: measured MIC of the compound NC1CCC2=C1CN(c1c(F)cc3c(=O)c(C(=O)O)cn(C4CC4)c3c1F)C2 (stereo not shown) [Example 1] is ____.
0.391

Fill in: MIC of CNC1CCC2=C1CN(c1c(F)cc3c(=O)c(C(=O)O)cn4c3c1OC[C@@H]4C)C2 (stereo partly shown) [Example 17] is ___
3.12

For the compound CNC1CCC2=C1CN(c1c(F)c(N)c3c(=O)c(C(=O)O)cn(C4CC4)c3c1F)C2 (stereo not shown) [Example 11] , what MIC is on record?
1.56

Consider the compound shown here: NC1CCCC2=C1CN(c1c(F)cc3c(=O)c(C(=O)O)cn(C4CC4)c3c1F)C2 (stereo not shown) [Example 9] What is its recorded MIC?
0.781

Entry O=C(O)c1cn(C2CC2)c2cc(N3CCNCC3)c(F)cc2c1=O [Ciprofloxacin, reference compound] has what MIC?
0.391
